pIC50: −log10 of the molar value.
Please find below pIC50 data on ROCK2 (Homo sapiens, UniProt O75116) compiled from the literature.

Ask | Bench note: what pIC50 did COc1cccc(CN2C(=O)N(c3ccc(-c4cn[nH]c4)cc3)CC23CCN(CC2CCCC2)CC3)c1 show?
Reply | > 8.52

Ask | Bench note: what pIC50 did COc1cccc(CN2CCN(c3ccc(-c4ccncc4F)c(C)n3)C2=O)c1 show?
Reply | 5.70 to 6.70

Ask | Bench note: what pIC50 did CCc1cc(N2CC3(CC3)N(Cc3cc(F)cc(OC)c3)C2=O)ccc1-c1cn[nH]c1 show?
Reply | 7.52 to 8.52

Ask | Bench note: what pIC50 did COc1cc(-n2cc(C)c(Nc3ccc4[nH]ncc4c3Cl)n2)ccc1C(=O)NC(C)C show?
Reply | > 6.52

Ask | Bench note: what pIC50 did CCc1cc(-n2ncn(C(C)c3ccccc3)c2=O)ccc1-c1cn[nH]c1 (stereo not drawn) show?
Reply | 7.30 to 8.30

Ask | Bench note: what pIC50 did Cn1c(C(=O)NC2CC(F)(F)C2)cc2c1CN(c1nccc(Nc3ccc(-c4cn[nH]c4)cc3)n1)CC2 show?
Reply | 6.30 to 7.30

Ask | Bench note: what pIC50 did N#Cc1c(OCc2ccccc2)ccc2c(C(=O)NC3CC4(C3)CC(c3n[nH]c(=O)c5ccccc35)C4)cnn12 (stereo not drawn) show?
Reply | 8.70 to 9.70

Ask | Bench note: what pIC50 did COc1cc(-n2ccc(Nc3ccc4[nH]ncc4c3)n2)ccc1OCC(=O)NC(C)C show?
Reply | 5.52 to 6.52

Ask | Bench note: what pIC50 did COc1cccc(NC2C(=O)N(c3ccc(-c4cn[nH]c4)cn3)CC23CCN(C(=O)CCn2cc(C)c4ccccc42)CC3)c1 (stereo not drawn) show?
Reply | 6.60 to 7.52

Ask | Bench note: what pIC50 did O=C(C1CCOCC1)N1Cc2ccc(-c3nccc(Nc4ccc(-c5cn[nH]c5)cc4)n3)cc2C1 show?
Reply | 7.08

Ask | Bench note: what pIC50 did O=C1N(c2ccc(-c3cn[nH]c3)cc2)CC2(CCOCC2)N1Cc1ccc(F)cc1F show?
Reply | 6.60 to 7.52

Ask | Bench note: what pIC50 did COc1cccc(Cn2c(C(C)(C)O)nn(-c3ccc(-c4cn[nH]c4)cc3)c2=O)c1 show?
Reply | > 8.30

Ask | Bench note: what pIC50 did COc1cc(F)cc(CNC(=O)c2ccn3cc(-c4cn[nH]c4)ccc23)c1 show?
Reply | ≥ 7.30

Ask | Bench note: what pIC50 did O=C(NC1CC2(C1)CC(c1n[nH]c(=O)c3ccccc13)C2)c1cnn2cc(N3CCC(F)(F)CC3)ccc12 (stereo not drawn) show?
Reply | 8.30 to 8.70

Ask | Bench note: what pIC50 did COc1cc(C(=O)N[C@H]2C[C@@H]2c2ccccc2)ccc1-c1cn[nH]c1 (racemic) show?
Reply | 8.07

Ask | Bench note: what pIC50 did COc1cc(C(=O)NCc2cccc(OC(F)(F)F)c2)ccc1-c1cn[nH]c1 show?
Reply | 7.39

Ask | Bench note: what pIC50 did Cc1onc(-c2ccccc2)c1NC(=O)Nc1ccc2c(c1)OCc1cnccc1-2 show?
Reply | 5.65

Ask | Bench note: what pIC50 did COc1cccc(Cn2c(C)nn(-c3ccc(-c4ccnc(N)c4)cc3)c2=O)c1 show?
Reply | 6.60 to 7.30
